The measurements presented in this section are drawn from patent US10966937B2.

- test.name: Plasma exposure of CMX-020 from enterically coated softgels with DHA TG vehicle
- Assay type: in vivo, male cynomolgus monkey
- assay.setup: male, cynomolgus monkey, plasma, oral, CMX-020 40 mg total dose, 5% (w/w) in DHA TG, read-out: absolute bioavailability
readout.name: bioavailability (%)
// note: answer is a bare numeric in %

Input CCCCCC(=O)N(CC/C=C\C/C=C\C/C=C\CCCC(=O)NC1CC1)C(C)C [CMX-020] , output reported bioavailability.
20

* * *

- test.name: clinical
- assay.setup: both, human, in vivo, po
readout.name: Tmax

Input CCCCCC(=O)N(CC/C=C\C/C=C\C/C=C\CCCC(=O)NC1CC1)C(C)C , output reported Tmax.
3.5 to 5.5 h
